Value source: the supplement of paper PMC9135407

- Test system: primary human hepatic stellate cells (donor 1)
- TEST NAME: scaled lipid accumulation score (0 = DMSO-like, 1 = nortriptyline-like); higher = stronger HSC inactivation (lipid re-accumulation), active = hit call of the paper
- ASSAY SETUP: library stock concentration: 10 mM; 48 h
Counter-ions that a name gives are not always drawn. Hit rate of the full screen: of about 5,800 compounds, about 620 (11%) showed activity.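 How the source made its calls: active = score above a cut-off or among the top three wells of a plate; in these data no inactive exceeds 0.85.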 Only a selection was taken, and actives are over-represented in it overall.
In this exercise, the only acceptable responses are active, inactive

>  <COMPOUND>
COc1ccc(C(Cl)=C(c2ccc(OC)cc2)c2ccc(OC)cc2)cc1

>  <QUALITATIVE LABEL>
inactive

$$$$

In: What call does the record list for CCN(CC)CCOc1ccc(C(=C(Cl)c2ccccc2)c2ccccc2)cc1 [Clomiphene citrate] ?
Out: inactive

In: What call does the record list for CCCC(C(=O)OCCN(CC)CC)(c1ccccc1)c1ccccc1 [Proadifen hydrochloride] ?
Out: inactive

In: What call does the record list for CCN(CC)CCOc1ccc(C(=C(Cl)c2ccccc2)c2ccccc2)cc1.O=C(O)CC(O)(CC(=O)O)C(=O)O [Clomifene citrate] ?
Out: active

In: What call does the record list for CCN(CC)CCOC(=O)c1ccc(N)cc1 [Procaine hydrochloride] ?
Out: inactive

----------
Parameter scaled lipid accumulation score: see the listing below.
- Tested on: primary human hepatic stellate cells (donor 1)
- TEST NAME: scaled lipid accumulation score (0 = DMSO-like, 1 = nortriptyline-like); higher = stronger HSC inactivation (lipid re-accumulation), active = hit call of the paper
- ASSAY SETUP: library stock concentration: 1 mM; 48 h
Hit rate of the full screen: of about 5,800 compounds, about 620 (11%) showed activity. What follows is part of a selection rich in actives, with near analogues and random picks from the rest.

In: Given `C[C@H](CCCO)[C@H]1CC[C@H]2[C@@H]3[C@H](O)C[C@H]4C[C@H](O)CC[C@]4(C)[C@H]3C[C@H](O)[C@]12C` , state its recorded scaled lipid accumulation score.
Out: 0.043 (inactive)

In: Given C[S+]([O-])c1ccc(-c2nc(-c3ccc(F)cc3)c(-c3ccncc3)[nH]2)cc1 (stereo not given) , state its recorded scaled lipid accumulation score.
Out: ≤ 0 (inactive)

In: Given `CCCCCCCCCCCCCCCCOC[C@H](CO)SC(C)=O` , state its recorded scaled lipid accumulation score.
Out: ≤ 0 (inactive)

In: Given `O=C(Nc1ccc([N+](=O)[O-])cc1O)Nc1ccccc1Br` , state its recorded scaled lipid accumulation score.
Out: ≤ 0 (inactive)

In: Given `CCCCCCCCCCCCCCCCCCCCCC(=O)NCCS(=O)(=O)O` , state its recorded scaled lipid accumulation score.
Out: ≤ 0 (inactive)

In: Given CCCCC[C@](C)(O)/C=C/[C@H]1[C@H](O)CC(=O)[C@@H]1CCCCCCC(=O)O [15(S)-15-methyl Prostaglandin E1] , state its recorded scaled lipid accumulation score.
Out: 0.012 (inactive)

----------
- Tested on: primary human hepatic stellate cells (donor 1)
- TEST NAME: scaled lipid accumulation score (0 = DMSO-like, 1 = nortriptyline-like); higher = stronger HSC inactivation (lipid re-accumulation), active = hit call of the paper
- ASSAY SETUP: library stock concentration: 3.33 mM; 48 h
Where a name gives a salt, the structure may show the parent alone. Hit rate of the full screen: of about 5,800 compounds, about 620 (11%) showed activity.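 Rule for the calls: active = score above a cut-off or among the top three wells of a plate; in these data no inactive exceeds 0.85.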 What follows is part of a selection rich in actives, with near analogues and random picks from the rest.
In this exercise, the only acceptable responses are T = active, F = inactive

# count of solved cases: 5
>  <MOLECULE>
Nc1ncnc2c1c(-c1cccc(OCc3ccccc3)c1)cn2[C@H]1C[C@H](CN2CCCC2)C1

>  <TARGET SYSTEM>
primary human hepatic stellate cells (donor 1)

>  <QUALITATIVE LABEL>
T

$$$$
>  <MOLECULE>
C=CC(=O)N1CCC[C@@H](n2nc(-c3ccc(Oc4ccccc4)cc3)c3c(N)ncnc32)C1

>  <TARGET SYSTEM>
primary human hepatic stellate cells (donor 1)

>  <QUALITATIVE LABEL>
F

$$$$
>  <MOLECULE>
N[C@@H]1CCCN(c2c(/C=C3\SC(=O)NC3=O)cccc2-c2ccccc2)C1

>  <TARGET SYSTEM>
primary human hepatic stellate cells (donor 1)

>  <QUALITATIVE LABEL>
F

$$$$
>  <MOLECULE>
O=C1Nc2ccc(I)cc2C1=Cc1cc(Br)c(O)c(Br)c1

>  <TARGET SYSTEM>
primary human hepatic stellate cells (donor 1)

>  <QUALITATIVE LABEL>
F

$$$$
>  <MOLECULE>
O=C(/C=C\n1cnc(-c2cc(C(F)(F)F)cc(C(F)(F)F)c2)n1)NNc1cnccn1

>  <TARGET SYSTEM>
primary human hepatic stellate cells (donor 1)

>  <QUALITATIVE LABEL>
F

$$$$

In: What call does the record list for CN(C)CCC=C1c2ccccc2CCc2ccccc21 [Amitriptyline HCl] ?
Out: F

In: What call does the record list for `C[C@@H]1C[C@H]2[C@@H]3CCC4=CC(=O)C=C[C@]4(C)[C@@]3(F)[C@@H](O)C[C@]2(C)[C@@]1(O)C(=O)CO` ?
Out: F

In: What call does the record list for CN1[C@@H]2CC[C@H]1C[C@@H](OC(c1ccccc1)c1ccccc1)C2 [Benztropine mesylate] ?
Out: F

In: What call does the record list for `c1cc(-c2cnn3cc(-c4ccc(OCCN5CCCCC5)cc4)cnc23)ccn1` ?
Out: F

In: What call does the record list for `CN(C)C(=O)Nc1cccc(-c2ccc(N(C)C)cc2)c1` ?
Out: F

In: What call does the record list for `Cn1cc(-c2[nH]c3cc(NC(=O)[C@H](N)C4CCCCC4)cc4c3c2C=NNC4=O)cn1` ?
Out: F

In: What call does the record list for `CCOc1nc(NC(=O)Cc2cc(OC)ccc2OC)cc(N)c1C#N` ?
Out: F

In: What call does the record list for `COc1ccc(CNc2nc(N(CCO)CCO)nc3c2ncn3C(C)C)cc1` ?
Out: F

In: What call does the record list for `CCC(CC)CC1(C(=O)Nc2ccccc2SC(=O)C(C)C)CCCCC1` ?
Out: F

In: What call does the record list for CN(C)CC/C=C1/c2ccccc2COc2ccc(CC(=O)O)cc21 [Olopatadine HCl] ?
Out: F

In: What call does the record list for `Cc1cnc(Nc2ccc(OCCN3CCCC3)cc2)nc1Nc1cccc(S(=O)(=O)NC(C)(C)C)c1` ?
Out: F

In: What call does the record list for COc1ccccc1N1CCN(CCCNc2cc(=O)n(C)c(=O)n2C)CC1 [Urapidil HCl] ?
Out: F

In: What call does the record list for CN1C2CCC1CC(OC(=O)C(O)c1ccccc1)C2 (stereo not drawn) [Homatropine Bromide] ?
Out: F
